Items are presented alongside their recorded IC50.
Test system: OVCAR-3 cells
Assay: In vitro anti-proliferative activity assay in cancer cell line OVCAR-3 (CellTiter-Glo, 4- or 7-day)
Type: cell-based
Conditions: Homo sapiens, OVCAR-3, 168 h, 7-day assay; read-out: OVCAR-3 cellular antiproliferation assay IC50
Property measured: IC50

> print(dat)
                                   molecule  property.measured  obs.value
1  C[Si]1(C)CCN(c2cc(S(=N)(=O)C3CC3)ccc2C(=O)Nc2cccc(N3CCC(F)(F)CC3)n2)CC1 (stereo not shown)               IC50   < 100 nM
2  C[Si]1(C)CCN(c2cc(NS(=O)(=O)CCO)ccc2C(=O)Nc2cccc(OC[C@H](O)C(F)(F)F)n2)CC1               IC50   < 100 nM
3  Cc1cc(NC(=O)c2ccc(NS(=O)(=O)CCO)cc2N2CC[C@]3(C(F)F)C[C@@H]3C2)nc(N2CCC(F)(F)CC2)c1               IC50   < 100 nM
4  CC(C)(CO)Nc1ccc(C(=O)Nc2cccc(S(=O)(=O)C3CCCC3)c2)c(N2CC[Si](C)(C)CC2)n1               IC50  > 1000 nM

====

Experiment: Bone marrow concentration in 28 day OVCAR-3 xenograft study
Assay type: in vivo, mice
Conditions: NOD SCID, mouse, 30 mg/kg QD oral, 28 day study, read-out: Bone marrow concentration at 6 h post-last dose
Property measured: concentration at 6 h (ng/g)

Molecule	Obs value
Cc1cc(NC(=O)c2ccc(NS(=O)(=O)CCO)cc2N2CC[C@@]3(C(F)F)C[C@H]3C2)nc(N2CCC(F)(F)CC2)n1 (single isomer, unassigned) [Example 29b]	10500
Cc1cc(NC(=O)c2ccc(NS(=O)(=O)CCO)cc2N2CCC3(CC2)CC3)nc(N2CCC(F)(F)CC2)n1 [Compound A, reference compound]	17000

====

Measured IC50 by item
System: OVCAR-3 cells
Test: In vitro anti-proliferative activity assay in cancer cell line OVCAR-3 (CellTiter-Glo, 4- or 7-day)
Type: cell-based
Settings: Homo sapiens, OVCAR-3, 168 h, 7-day assay; read-out: OVCAR-3 cellular antiproliferation assay IC50
Property measured: IC50

> print(dat)
                                   compound       obs.value
1  C[Si]1(C)CCN(c2cc(NS(=O)(=O)NCCO)ccc2C(=O)Nc2cccc(OC[C@H](O)C(F)(F)F)n2)CC1 [Example 126]   100 to 500 nM
2  O=C(Nc1cccc(N2CCC(F)(F)CC2)n1)c1c(F)cc(NS(=O)(=O)CCO)cc1N1CC[C@@]2(C(F)F)C[C@H]2C1 [Example 84]   100 to 500 nM
3  C[Si]1(C)CCN(c2cc(S(=O)(=O)CCO)ccc2C(=O)Nc2cccc(OC[C@H](O)C(F)(F)F)n2)CC1 [Example 130]   100 to 500 nM
4  C[Si]1(C)CCN(c2cc(NS(C)(=O)=O)ccc2C(=O)Nc2cccc(OC[C@H](O)C(F)(F)F)n2)CC1 [Example 128]   100 to 500 nM
5  CC(=O)NCCS(=O)(=O)Nc1ccc(C(=O)Nc2cccc(N3CCC(F)(F)CC3)n2)c(N2CC[Si](C)(C)CC2)c1 [Example 104]   100 to 500 nM
6  Cc1cc(NC(=O)c2ccc(NS(=O)(=O)CCO)cc2N2CC[C@@]3(C)C[C@H]3C2)nc(N2CCC(F)(F)CC2)n1 [Example 63]        < 100 nM
7  C[Si]1(C)CCN(c2cc(NS(=O)(=O)CCO)cc(F)c2C(=O)Nc2cccc(OC[C@@H](O)C(F)(F)F)n2)CC1 [Example 123]  500 to 1000 nM
